Hello, the source for this data is ChEMBL document CHEMBL1201862, in case you need it.

# GI50 per entry
# Test system: DU-145
# METHOD_DESCRIPTION: NCI tumour cell line growth inhibition, 48 h
Activity calls are given as the source filed them. No stated cut-off is given here; in the data, active = GI50 up to about 1.1 µM and inactive = higher.

Some compounds with known GI50 results, for comparison:
• CC(=O)O[C@@H]1C[C@]2(C(=O)c3ccccc3)C(=O)C(=O)S[C@]12c1ccccc1 = 51.8 µM (inactive)
• COC(=O)[C@H]1NC(=O)CCSSC1(C)C = > 100 µM (inactive)
• O=c1[nH][nH]c(=S)c(=O)[nH]1 = > 100 µM (inactive)

Record CC(C)(C)OC(=O)N(O)CCCn1cnc2c(NC3CC3)ncnc21 , field GI50: > 100 µM (inactive)

# GI50 (compound: Cc1ccc(C2=Nn3c(nc4sc5c(c4c3=O)CCCC5)SC2)cc1 ) is > 100 µM (inactive)

Measured GI50 of Clc1ccc(CN2CCCN(Cc3ccc(Cl)cc3)C2c2cc3ccccc3c3ccccc23)cc1 : 44.2 µM (inactive)

Notebook: CCN(CC)CCCn1c(=O)c2cccnc2n2c3c(=O)n(C)c(=O)n(C)c3nc12 , GI50 read as > 100 µM (inactive)

For CCC/C=C/C=C/C(=O)OC1/C(=C/C(=O)OC)CC2CC(C(C)O)OC(=O)CC(O)CC3CC(OC(C)=O)C(C)(C)C(O)(CC4C/C(=C/C(=O)OC)CC(/C=C/C(C)(C)C1(O)O2)O4)O3 (stereo not given) the compound record lists GI50 as > 12.5 µM (inactive)

Quick note, GI50 for Cc1nc2sc3ccccc3n2c(=O)c1/N=N/c1ccc(Br)cc1 landed at > 100 µM (inactive)
